Assay: soluble on expression in E. coli; label from the status in PepcDB or PDB records
testReadout: soluble on expression in E. coli

sequenceContent: MSLAQKRYKHILWDLDGTIIDSKIGVSESIRYCLKYFNIEVTCLDEFKPMIGPPLQDSLREIYNFSPQQVEIACKLYDEYYMKKGIHEYKVFQNIEKVLSQLQNDNKELYVATTKPEYAAKQLLADCKLDTYFKFIGGDNEEFTRSNKADVIQYVLSANNISATDNVVMIGDRKYDMLAAKKIGIDTIGVLYGYGDRNELLTNGAQYIIEEPYELLNLLKGEGHHHHHH
soluble on expression in E. coli: soluble

sequenceContent: MGSDKIHHHHHHMTVSMEQLEAFVAAAEHGSFSAAGRALRKAQSAVSTQVSNLEEDLGLELFSRQGRNPTLTAAGERLLSEARLILDRREHLIGVAASFEAHVEKRLVVAIDELYPEHALGELFAEFAVHFPHVELELLFPMMEDVSRLVLDGKADIGVMWRQEDLPAELGFHTIGWVQLKLVCGRNHPLANAVVGWEDLKRHRQIMVTVRTEGMERHRLRVAAEVWWVESHWVILQILKQGIGWALIPAHILARSPVAQDLAIPALQFDDGAHPVALELVWHKQRPSGPAATWLRKRFATTKIDMVAE
soluble on expression in E. coli: not soluble

sequenceContent: TVGCVAVDSHGNLASATSTGGLVNKMVGRIGDTPLIGAGTYANELCAVSATGKGEEIIRATVARDVAALMEFKGLSLKEAADFVIHERTPKGTVGLIAVSAAGEIAMPFNTTGMFRACATEDGYSEIAIWPTT
soluble on expression in E. coli: soluble

sequenceContent: MKKSYLVTPLVAGALILPAALPATAAQASAPAPAAVSTVNKTALTTDQIKAERSALNSRINMLQETQKAIPGSQYADQIEDLIKTALDLSGAIDTIAHGGVPAYDPATIVPRIHLAIDAADAIKTGNTTLQHKVKKAHVELGLEIAKASIVAINPASSVAQVQDEIKALKARIDKVSAYPDLSKDDTATIAYKQTLRKTIHEVRVGRNKNIVGKKDQAVVDTLNKEISKADKVRANAKSTVAQVDTAVDQLRAAYQTALNAPDKAKKLEHHHHHH
soluble on expression in E. coli: not soluble

sequenceContent: MILKPENEKKLIIDVLKKFGVPEEDAKITADVFVDADLKGFTSHGIGRFPQYITALKLGNINPKPDIKIVKESPATAVIDGDLGLGQVVGKKAMELAIKKAKNVGVGVVATRNANHFGIAGYYSELAMNQDMIGITITNTEPAMAPFGGKEKILGTNPIAIAFKGNKYKFSLDMATASIARGKILEALRKKIKIPEGCAVDKDGKPTTDPAKALEGCILPFGGPKGYGLALAIEMLSAIGGAEVGTKVKGTANPEERCTKGDLFIAINPEFFMGKEEFKRKVDELLDEIKNSEPAEGFEILIPGEIEERNKMKRKDGFEIDKNLYNQLKEICNELGLNIEDYIE
soluble on expression in E. coli: soluble

sequenceContent: GPLGSDDVEWVVGKDKPTYDEIFYTLSPVNGKITGANAKKEMVKSKLPNTVLGKIWKLADVDKDGLLDDEEFALANHLIKVKLEGHELPADLPPHLVPPSKRRHE
soluble on expression in E. coli: soluble

sequenceContent: MGSDKIHHHHHHMIGYGLPMPNQAHFSASFARPSTPAAKCMHHIRLGQQLIRNELVEATGLSQPTVTRAVTALMQAGLVRERPDLTLSSGPGRPNIPLELAPSPWIHAGVAIGTKSSYVALFDTKGRTLRDAMLEISAADLDPDTFIEHLIAGVNRLTTGLDLPLVGIGVATSGKVTNAGVVTASNLGWDGVDIAGRLNYQFSVPATVASAIPAIAASELQASPLPHPEQPTPITLTFYADDSVGAAYSNDLGVHVIGPLATTRGSGLDTLGMAAEDALSTQGFLSRVSDQGIFANSLGELVTIAKDNETAREFLNDRATLLAHTAAEAAETVKPSTLVLSGSAFSEDPQGRSVFASQLKKEYDADIELRLIPTHRENVRAAARAVALDRLLNEPLTLVP
soluble on expression in E. coli: not soluble

sequenceContent: GSHMNTLKKAFEILDFIVKNPGDVSVSEIAEKFNMSVSNAYKYMVVLEEKGFVLRKKDKRYVPGYKLIEYGSFVLRRFNIRDIAHDHLVDIMKRTGETVHLILKDGFEGVYIDKVEGEQSIPMVSRLGMKVDLYSTASGKSILAFVPEKELKEYLKIVELKPKTPNTITNPRVLKRELEKIRKRGYAVDNEENEIGIMCVGVPIFDHNGYPVAGVSISGVARKFTEEKIEEYSDVLKEKAEEISRKLGY
soluble on expression in E. coli: soluble

Hi there! I need soluble on expression in E. coli for each item below, if you can.
1. MDIGRAVRFLRKRQGWTQQQLADFSHTSKSNISNLENGNQGYSPAILEYLAKAFNCSVSQIFLLAENMDNEGNLLKDWQHMPIDVLFIQLPQEVQCQLKHLIFTLIDTKK
2. MRRLLTLWVLGLGALAQVPVGQVATRDVHALLWLPDGRLLFGHHDGLQVSEDEGRTWRDLVRKTGFDAMEHSFWRGDRLLAAEHWVLSESRDGGKTWRSFRPRGLPALDLHGYAASGGLHFALEATHGYFVSEDGGKTFKSTAPKGLPKAGMAAMVFQGKTLYVAPMGQGLYQSSDGGRTFTQVPTPEREIYALATGAGTLYLGGKTGLWQRTPAGWKRLWQGAVLALAAHPQEAGRLVFIDGQERVWKLP
3. MRRKMERIALIEDDKDLAFLVKLNLEREGFEVEHFERATPFFKFISENSVDLILIDIMLPDLDGFRIANFLKSRADLKEIPVIFITAKGEEEDKLKGFELGADDYITKPFSMKELIARVRAVLKRYKKVSESKVLKYEGVELDTERQKLFVDGREVYLTPAEFKILKTLMENFGRPVSRSSLVEKLWDYERETTERAIDVHVKHIRDKLGKYKGLIKTVRGVGYKFEN
4. MEDNIRIGKIILNLSNKISRQLNKEASAFGLTGVQAKLIGFIHHRSSTQDIFQKDIEEEFDIRRSSVTSALQLMEKKGYIKRVSVSDDARLKKIVLTEKGLELDKKVYDAIIKLENSLINEFDNDELHVLIDSLDRISKKIVDLEHHHHHH
5. MSQQSLISPSLQDILCKIQFNDTQFETTKKITRKRSNNFNPDRKKRNRITFDANQIDEMEKVFAENQYPDTMSREKLANKIQLHEERVQIWFQNRRAKYRREQKQTGHPYEPPSITKNPTGEKEKTQDCTTLTSASSPGPSNLSNDTLVSIEMAPKIGTKSVNLFPDQALSNTLNMIINANKNASENNYESEDQFNAESAKLLMLTLSNLFSLQNETTCE

1: not soluble; 2: soluble; 3: soluble; 4: soluble; 5: not soluble

---

Assay: soluble on expression in E. coli; label from the status in PepcDB or PDB records
testReadout: soluble on expression in E. coli

Example sequences with recorded soluble on expression in E. coli:
sequenceContent: GPGSMDDLVAVRIKDGIFAGNAGAAADKTLLIMNKITHIINCAGAEVADFFLGEPGFSYLSFPWKDAAGSVCTTILFDAGDDNIHRVVQFIDEALAAGECVLVHSVYGNSRSPALIAAYMIMKYGWKLESALLYLKMAHPDSDIKPHFQRQLRQFAKRHEVDHDIFAQDVDDSQFGLDNDQWMLRNTLLNGLLYKDQMANDLYRQCAEKVDVGNPVNGKAKKAHITFVDTKKGTDA
result: not soluble
//
sequenceContent: MIKVEIKPSQAQFTTRSGVSRQGKPYSLNEQLCYIDLGNEYPVLVKVTLDEGQPAYAPGLYTVHLSSFKVGQFGSLMIDRLRLVPAK
result: soluble
//
sequenceContent: MGSDKIHHHHHHMIHKLADVQSQNIGDNTKVWQFCVILAGAVIGRNCNICANSLIENDVVIGDNVTIKSGVQIWDGIHIQDDVFIGPNVTFTNDKQPRSKIYPDEYLKTIVKKGASIGANSTILPGILIGENAMVGAGAVITKNVPDNAIVIGNPGRITGYVEANTGVIMPSNNFELKLQMSKVKGVSLHKFHLVNDLRGNLSVGEFEKDIPFTPKRYFTVFGVPNKEVRGEHAHKECKQFLICVSGNCSVLVDDGENREEYVLDSIDKGIYLPPMTWGVQYKYSKDAVLLVFASHYYDSDDYIRDYSTFKQMRQN
result: not soluble
//
sequenceContent: MGNYMTYIVGLTGGIGSGKTTIANLFTDLGVPLVDADVVAREVVAKDSPLLSKIVEHFGAQILTEQGELNRAALRERVFNHDEDKLWLNNLLHPAIRERMKQKLAEQTAPYTLFVVPLLIENKLTALCDRILVVDVSPQTQLARSAQRDNNNFEQIQRIMNSQVSQQERLKWADDVINNDAELAQNLPHLQQKVLELHQFYLQQAENKNALEHHHHHH
result: soluble
//
sequenceContent: MGSDKIHHHHHHMDHIQAMRVFVRIVELGSFSRAAERLALPRATVSNTIKQLEGRLGVRLLQRTTRQVQITDEGRVYYERCLQLLAEIEEIDTLFTQQKLQPVGKVRVDMPHSLAREIVVPALGEFYARYPQVTLMLSANDAAINVLREGVDCVLRAWQTDDETLATRHLPSMPQVTCASADYLARYGVPRSLDELSGHHMVGYFSLRTEYLYPLEFMSGDERITRMLPGTLQVNGADAYIAGACAGLGIIQAPRRGLISLLDGGELVEILPEIPPPAMPLYVMYTPGRFLAPRIRVFIEWLDELFTRNAAVR
result: not soluble
//
sequenceContent: MMLITTSHRPTRRTRSFGHDLERVFPNSLYLTRGKKTIQELLMEAYDRGYERLLILNVWKGNPLKMTFIKVHPEDWGYLGYLYLHGIKLQREMGFKGLNPIREDMPLVVTTAKRVGWDHIAFAQVFAELTTGKFVPRGDKSLTYIADKYDTDVIAVIERHPRGMVINFYRLDVTKDRPVGPLINVKIWIMEDGRRWDYKEALGIKVPRREKGEGQESSSENRDLEHHHHHH
result: soluble
//
sequenceContent: FINDVDLIITVEELDSFLEDQLLQLLGKHDISKTVYGKKNNIFPCCGEYSVDIVKTGINKVLDILKIQKIEISEKLIEKTDIIPLPVRPPNLCAGCMHRTVFYAFKEVSKDLKKQNIQIIFSGDIGCYTLGNAPPLELIDTCLCMGAGISLAGGI
result: not soluble
//
sequenceContent: MLPVITRFARPALMAIRPVNAMGVLRASSITKRLYHPKVIEHYTHPRNVGSLDKKLPNVGTGLVGAPACGDVMRLQIKVNDSTGVIEDVKFKTFGCGSAIASSSYMTELVQGMTLDDAAKIKNTEIAKELSLPPVKLHCSMLAEDAIKAAIKDYKSKRNTPTMLS
result: not soluble
//
sequenceContent: MGSDKIHHHHHHVPLNSPLQLSLPVHLPDDETFNSYYPAAGNDELIQKLRANAEGQGEAAIYLWGPVKSGRTHLMHAACAHANEVERRSFYIPLGIHASISTALLEGLEQLDLVCIDDVDAIAGHPVWEEAIFDLYNRVAEHKNCALVVSGSSSPADAGFLLPDLVSRMQWGLNYQLQPMADDEKLAALQRRAAMRGLQLPEDVGRFLLNRMARDLRTLFDVLDKLDKASLVHQRKLTIPFAKEMLHL
result: not soluble
//
sequenceContent: MGSDKIHHHHHHMIRYPVLKEGATIGVTAPSSGVPKDLHDLVKAACERMEERGFRVVCGETVWTQEKAKSSEAKKRATELQAMMEDDAIDLMIPPWGGQLLIEVLQFLDFEQWEPKWILGYSDTSLLLLAITLNTGIATAHGTNLVDLRGEYSDDTTAMWQPVLSTKIGDSIVQHSSKKYQKEWDFERPTPCVFHLTEKTKWQGVPKQTLSINGRLLGGCIDVIRHLIGTPYGDVTRFQADVIKGAPIIWFFENCELTTTDLRRTLVQMKLAGWFDHCSGIMFGRSPTNTPVEDYTVDDVFRDLYEELKVPLMTDIDCGHVPPQLTLINGAYAEVKLNDGKGIVTQFFKE
result: not soluble

Okay, here is my list. What is soluble on expression in E. coli for each of these?
1. MGSDKIHHHHHHMMNTTETAPVLNPALEDEYSKALDEIKQFGEAQTHTVHDLGSATWAMRKLGELNKEDAEARKVVQANIDQLNEWLQHSLEARQSRRNYLEHEVLAYVANNRKHDPKYKLDTPYGKVSFTVKRKATPAISDETQVLNFIKSNWNESEQTQVIKRTEKVLVSELKKQVTVAGDKVIDEDGQPIPGMHVDPAGTETPHIKPIQMTEALS
2. KTVINVVLQEDTQILDEVVVTALGLKREQKALGYAVTEVKGDDLKAANTISPVAALQGKVAGVEIRQSDGGMFGATKIQIRGASTLKGNNQPIYVIDGVILDNSTSGNTTMDWDAGNNNANDYGNELKNLNPDDFETVSVLKGAAATALYGSRGLNGAVVITTKSGKG

1. not soluble
2. not soluble

These entries and their values trace back to the DeepSol protein solubility set.
